# subject of test: YIPF4 (UniProt Q9BSR8)
# Sequence (Q9BSR8 whole entry, looked up): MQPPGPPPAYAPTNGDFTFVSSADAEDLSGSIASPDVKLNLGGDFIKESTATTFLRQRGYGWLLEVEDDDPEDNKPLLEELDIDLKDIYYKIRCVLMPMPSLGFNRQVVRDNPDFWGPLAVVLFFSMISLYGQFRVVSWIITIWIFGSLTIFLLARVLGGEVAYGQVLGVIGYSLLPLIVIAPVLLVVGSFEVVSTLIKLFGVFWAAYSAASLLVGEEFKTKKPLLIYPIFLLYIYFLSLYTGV
# test summary: log2 fold change, soluble protein after heating vs DMSO (PISA); higher = thermal stabilisation; K562 cells, 10 uM, 30 min; active = over 0.2 and 3.5 SD of the protein, either way, in both replicates (recomputed)
Of roughly 7,900 targets only a part is listed; those with a hit were picked by preference. About 0.6% of all pairs of compound and target were hits.
Measured log2 fold change of individual entries
Could you keep your reply to the number by itself?

Would you please look over these solved cases?
CC[C@@H]1C(=O)N(C)c2cnc(Nc3ccc(C(=O)NC4CCN(C)CC4)cc3OC)nc2N1C1CCCC1	0.022
COc1cccc2cc(-c3nc([C@H]4CC[C@H](C(=O)O)CC4)n4ncnc(N)c34)[nH]c12	0.06
CO[C@H]1C[C@@H]2CC[C@@H](C)[C@@](O)(O2)C(=O)C(=O)N2CCCC[C@H]2C(=O)O[C@H]([C@H](C)C[C@@H]2CC[C@H](n3cnnn3)[C@H](OC)C2)CC(=O)[C@H](C)/C=C(\C)[C@@H](O)[C@@H](OC)C(=O)[C@H](C)C[C@H](C)/C=C/C=C/C=C/1C [zotarolimus]	0.015
NCC(=O)Nc1ccc(-n2nc(C(F)(F)F)cc2-c2ccc3c(ccc4ccccc43)c2)cc1	-0.004
O=C(O)c1ccc2c(c1)nc(Nc1cccc(Cl)c1)c1ccncc12 [silmitasertib]	-0.006

Enquiry: State the recorded log2 fold change for this entry: Cc1ccc(Sc2cncc3sc(C(N)=O)cc23)cc1
Return: -0.023

Enquiry: Entry to check: CON(C)C(=O)N1N=C(c2cc(F)ccc2F)S[C@@]1(CCCN)c1ccccc1 [filanesib]
Return: 0.077

====

Listing of recorded log2 fold change by entry.
# subject of test: ZMAT2 (UniProt Q96NC0)
# Sequence (Q96NC0 whole entry, looked up): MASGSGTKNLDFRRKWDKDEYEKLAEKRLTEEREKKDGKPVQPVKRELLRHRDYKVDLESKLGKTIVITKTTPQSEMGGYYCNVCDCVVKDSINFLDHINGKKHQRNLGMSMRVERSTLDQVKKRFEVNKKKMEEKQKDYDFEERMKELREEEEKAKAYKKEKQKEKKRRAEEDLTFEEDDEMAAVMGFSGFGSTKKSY
# test summary: log2 fold change, soluble protein after heating vs DMSO (PISA); higher = thermal stabilisation; K562 cells, 10 uM, 30 min; active = over 0.2 and 3.5 SD of the protein, either way, in both replicates (recomputed)
The full data set covers some 7,900 targets. This sample favours those with a hit. About 0.6% of all pairs of compound and target were hits.
Provide a numeric answer; units are not to be included.

Check out these entries, answers already filled in.
CC(C)N(C[C@H]1O[C@@H](n2cnc3c(N)ncnc32)[C@H](O)[C@@H]1O)[C@H]1C[C@@H](CCc2nc3cc(C(C)(C)C)ccc3[nH]2)C1	-0.037
CNc1nc(-c2ccc3c(N)n[nH]c3c2)cc(N2C[C@@H](C(=O)NC3CCCCC3)CC[C@H]2C)n1	-0.058
O=C(Nc1cccc(Nc2ncc(Br)c(NCCc3cnc[nH]3)n2)c1)N1CCCC1	0.017
Cc1ccc(C(=O)N(CCCN)[C@@H](c2nc3cc(Cl)ccc3c(=O)n2Cc2ccccc2)C(C)C)cc1	0.042

Enquiry: Find the recorded log2 fold change belonging to NC1(c2ccc(-c3nc4ccn5c(=O)[nH]nc5c4cc3-c3ccccc3)cc2)CCC1 and report it.
Return: 0.043

Enquiry: Now consider Cn1cc(-c2ccc3nnc(C(F)(F)c4ccc5ncccc5c4)n3n2)cn1 and answer again.
Return: -0.051

Enquiry: // query: O=C(Nc1nc2ccccc2n1CCN1CCOCC1)c1cccc([N+](=O)[O-])c1
Return: 0.11

Enquiry: Now give it for CCN(CCCOc1ccc2c(Nc3cc(CC(=O)Nc4cccc(F)c4)[nH]n3)ncnc2c1)CCOP(=O)(O)O too.
Return: -0.047

Attribution: the supplement of paper PMC10849652
